target: EZH2 (rPRC2) (Homo sapiens, UniProt Q15910); test: EZH2 assay: rPRC2, biotinylated oligonucleosomes, 3H SAM methyl transfer (FlashPlate scintillation); format: biochemical; details: EZH2 IC50, wild-type EZH2 (rPRC2), biotinylated oligonucleosome substrate
Sequence (Q15910 whole entry): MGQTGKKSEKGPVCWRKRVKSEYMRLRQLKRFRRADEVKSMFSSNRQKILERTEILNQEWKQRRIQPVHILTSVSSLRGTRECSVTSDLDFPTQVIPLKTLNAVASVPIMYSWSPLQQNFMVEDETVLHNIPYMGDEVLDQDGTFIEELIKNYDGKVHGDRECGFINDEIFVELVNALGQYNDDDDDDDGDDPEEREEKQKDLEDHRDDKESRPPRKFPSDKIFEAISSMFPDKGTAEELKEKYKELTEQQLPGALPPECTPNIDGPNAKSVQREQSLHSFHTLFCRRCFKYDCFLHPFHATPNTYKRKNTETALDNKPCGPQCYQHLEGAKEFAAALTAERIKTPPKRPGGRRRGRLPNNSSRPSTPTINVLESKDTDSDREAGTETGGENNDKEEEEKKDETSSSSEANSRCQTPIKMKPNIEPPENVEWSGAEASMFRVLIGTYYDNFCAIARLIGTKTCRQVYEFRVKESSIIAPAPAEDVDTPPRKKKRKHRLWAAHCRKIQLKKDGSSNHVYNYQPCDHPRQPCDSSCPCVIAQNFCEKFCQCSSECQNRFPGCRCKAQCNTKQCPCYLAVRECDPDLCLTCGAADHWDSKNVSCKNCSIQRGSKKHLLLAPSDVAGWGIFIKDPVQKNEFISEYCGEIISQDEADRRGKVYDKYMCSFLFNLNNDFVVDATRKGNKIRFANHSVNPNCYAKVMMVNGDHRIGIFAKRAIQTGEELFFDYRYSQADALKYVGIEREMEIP
Sequence (O75530 whole entry partner): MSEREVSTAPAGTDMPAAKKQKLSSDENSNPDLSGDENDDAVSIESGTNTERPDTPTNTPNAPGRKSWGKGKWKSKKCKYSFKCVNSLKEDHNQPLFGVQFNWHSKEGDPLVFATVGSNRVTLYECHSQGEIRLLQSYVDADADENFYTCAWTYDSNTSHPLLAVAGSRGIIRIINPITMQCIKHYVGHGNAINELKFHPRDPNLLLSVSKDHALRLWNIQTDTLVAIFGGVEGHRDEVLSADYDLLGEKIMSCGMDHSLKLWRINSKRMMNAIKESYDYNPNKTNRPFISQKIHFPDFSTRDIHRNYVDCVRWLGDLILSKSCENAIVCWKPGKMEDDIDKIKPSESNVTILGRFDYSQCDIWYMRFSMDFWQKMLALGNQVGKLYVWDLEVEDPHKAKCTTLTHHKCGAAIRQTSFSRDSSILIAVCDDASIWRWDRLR
Sequence (Q15022 whole entry partner): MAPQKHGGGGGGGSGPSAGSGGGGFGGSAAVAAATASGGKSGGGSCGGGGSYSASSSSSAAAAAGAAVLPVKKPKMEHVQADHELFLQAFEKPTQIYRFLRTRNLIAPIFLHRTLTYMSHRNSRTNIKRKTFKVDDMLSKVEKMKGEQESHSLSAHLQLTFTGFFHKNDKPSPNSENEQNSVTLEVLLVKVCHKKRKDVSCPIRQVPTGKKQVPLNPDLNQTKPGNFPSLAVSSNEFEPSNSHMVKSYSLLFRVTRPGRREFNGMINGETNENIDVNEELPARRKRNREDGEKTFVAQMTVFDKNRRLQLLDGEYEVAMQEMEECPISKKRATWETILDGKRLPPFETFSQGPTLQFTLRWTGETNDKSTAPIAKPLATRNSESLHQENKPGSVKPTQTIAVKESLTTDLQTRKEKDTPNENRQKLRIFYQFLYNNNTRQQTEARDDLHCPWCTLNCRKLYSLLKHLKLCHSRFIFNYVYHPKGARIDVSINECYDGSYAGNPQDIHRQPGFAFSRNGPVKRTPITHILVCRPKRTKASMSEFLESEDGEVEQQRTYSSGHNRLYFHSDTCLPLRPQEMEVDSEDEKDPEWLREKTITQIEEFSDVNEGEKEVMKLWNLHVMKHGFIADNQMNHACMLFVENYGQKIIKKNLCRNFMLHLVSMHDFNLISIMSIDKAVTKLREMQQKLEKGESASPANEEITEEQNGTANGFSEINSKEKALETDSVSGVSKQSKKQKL
// reported IC50 for each item listed

Worked cases, IC50 given:
{"compound": "COC[C@H](C)n1c(C)c(C(=O)NCc2c(OC)cc(C)[nH]c2=O)c2cncnc21", "IC50": "100 to 1000 nM"}
{"compound": "Cc1cc(C)c(CNC(=O)c2c(C)n(C(C)c3ccccc3)c3ncccc23)c(O)n1 (racemic)", "IC50": "< 100 nM"}
{"compound": "Cc1cc(C)c(CNC(=O)c2c(C)n(C(C)c3ccc(S(C)(=O)=O)cc3)c3ccccc23)c(=O)[nH]1 (racemic)", "IC50": "< 100 nM"}

Form field: reported IC50 of Cc1cc(C)c(CNC(=O)c2c(C)n(C(C)c3cccc(C(N)=O)c3)c3ccccc23)c(=O)[nH]1 (single isomer, unassigned) [Compound 226]
100 to 1000 nM

Form field: reported IC50 of Cc1cc(C)c(CNC(=O)c2c(C)n(C(C)c3cccc(C#N)c3)c3ccccc23)c(=O)[nH]1 (single isomer, unassigned) [Compound 227]
< 100 nM

Form field: reported IC50 of Cc1cc(C)c(CNC(=O)c2c(C)n(C(C)c3cccc(Br)c3)c3ccccc23)c(=O)[nH]1 (racemic)
< 100 nM

Form field: reported IC50 of COc1cc(C)[nH]c(=O)c1CNC(=O)c1c(C)n(C(C)c2ccn(C)c(=O)c2)c2ncccc12 (single isomer, unassigned) [Compound 268]
< 100 nM

Form field: reported IC50 of COc1cc(C)[nH]c(=O)c1CNC(=O)c1c(C)n(C(C)C(C)(C)OC)c2ccccc12 (racemic)
< 100 nM

Form field: reported IC50 of CCCc1cc(C)[nH]c(=O)c1CNC(=O)c1c(C)n(C(C)COC)c2ncccc12 (racemic)
100 to 1000 nM

====

system: H3K27me3 mark in HeLa cells; test: H3K27me3 Alpha Hela Assay (AlphaLISA); assay type: cell-based; conditions: Homo sapiens, 72 hrs, read-out: H3K27me3_Alpha_HeLa_ (EC50)
// reported EC50 for each item listed

Worked cases, EC50 given:
{"compound": "COCC(C)n1c(C)c(C(=O)NCc2c(OC)cc(C)[nH]c2=O)c2ccccc21 (single isomer, unassigned)", "assay_value": "< 400 nM"}
{"compound": "COc1cc(C)[nH]c(=O)c1CNC(=O)c1c(C)n(C(C)C2CCN(C3COC3)CC2)c2ccccc12 (single isomer, unassigned)", "assay_value": "< 400 nM"}
{"compound": "COc1cc(C)[nH]c(=O)c1CNC(=O)c1c(C)n(-c2cccc3c2CCCN3)c2ccccc12", "assay_value": "< 400 nM"}
{"compound": "COc1cc(C)[nH]c(=O)c1CNC(=O)c1c(C)n(C(C)C2CCN(C(=O)OCC(C)C)CC2)c2ccccc12 (single isomer, unassigned)", "assay_value": "< 400 nM"}
{"compound": "COc1cc(C)[nH]c(=O)c1CNC(=O)c1c(C)n(C(C)C2CCN(CC(F)F)CC2)c2ccccc12 (single isomer, unassigned)", "assay_value": "< 400 nM"}

Consider the record given below.
Which measured EC50 belongs to CCc1cc(C)[nH]c(=O)c1CNC(=O)c1c(C)n(C(C)C2CCN(C)CC2)c2ccccc12 (single isomer, unassigned) , tested on H3K27me3 mark in HeLa cells?
400 to 2000 nM

====

biological target: EZH2 (rPRC2) (Homo sapiens, UniProt Q15910); test: EZH2 assay: rPRC2, biotinylated oligonucleosomes, 3H SAM methyl transfer (FlashPlate scintillation); format: biochemical; details: EZH2 IC50, wild-type EZH2 (rPRC2), biotinylated oligonucleosome substrate
// reported IC50 for each item listed

Worked cases, IC50 given:
{"compound": "COc1cc(C)[nH]c(=O)c1CNC(=O)c1c(C)n(C(C)c2cccc(C#N)c2)c2ncccc12 (racemic) [Compound 239]", "assay_value": "< 100 nM"}
{"compound": "Cc1cc(C)c(CNC(=O)c2c(C)n(Cc3cncnc3)c3ccccc23)c(=O)[nH]1 [Compound 149]", "assay_value": "100 to 1000 nM"}
{"compound": "Cc1cc(C)c(CNC(=O)c2c(C)n(C(C)c3ccccc3C)c3ccccc23)c(=O)[nH]1 (racemic) [Compound 174]", "assay_value": "100 to 1000 nM"}

Form field: reported IC50 of COc1cc(C)[nH]c(=O)c1CNC(=O)c1c(C)n(C(C)C2CCNCC2)c2ncncc12 (racemic) [Compound 333]
< 100 nM

Form field: reported IC50 of COc1cc(C)[nH]c(=O)c1CNC(=O)c1c(C)n([C@@H](C)c2ccccc2)c2ncccc12 [Compound 276]
< 100 nM

Form field: reported IC50 of Cc1cc(OC(F)F)c(CNC(=O)c2c(C)n(C(C)C3CCOCC3)c3ccccc23)c(=O)[nH]1 (single isomer, unassigned) [Compound 335]
< 100 nM

Form field: reported IC50 of Cc1cc(C)c(CNC(=O)c2c(C)n(Cc3ccccc3)c3ccccc23)c(O)n1 [Compound 119]
< 100 nM

Form field: reported IC50 of COCC(C)n1c(C)c(C(=O)NCc2c(OC)cc(C)[nH]c2=O)c2ccccc21 (single isomer, unassigned) [Compound 223]
< 100 nM

Form field: reported IC50 of Cc1cc(C)c(CNC(=O)c2c(C)n(C(C)CN3CCCCC3)c3ncccc23)c(=O)[nH]1 (racemic) [Compound 272]
1000 to 10000 nM

Form field: reported IC50 of COc1cc(C)[nH]c(=O)c1CNC(=O)c1c(C)n(C(C)C(OC)C2CC2)c2ncccc12 (stereo not drawn) [Compound 283]
< 100 nM

Form field: reported IC50 of CCOC(=O)CN1CCC(C(C)n2c(C)c(C(=O)NCc3c(OC)cc(C)[nH]c3=O)c3ccccc32)CC1 (single isomer, unassigned) [Compound 363]
< 100 nM

====

biological target: EZH2 (rPRC2) (Homo sapiens, UniProt Q15910); assay: EZH2 assay: rPRC2, biotinylated oligonucleosomes, 3H SAM methyl transfer (FlashPlate scintillation); type: biochemical; details: wild-type EZH2 (rPRC2), biotinylated oligonucleosome substrate; read-out: EZH2 IC50
// reported IC50 for each item listed

{"compound": "COc1cc(C)[nH]c(=O)c1CNC(=O)c1c(C)n(C(C)c2cccc(C(N)=O)c2)c2ncccc12 (racemic)", "IC50": "< 100 nM"}
{"compound": "Cc1cc(C)c(CNC(=O)c2cnn(C(C)c3ccccc3)c2C)c(O)n1 (single isomer, unassigned) [Compound 108]", "IC50": "> 10000 nM"}
{"compound": "Cc1cc(C)c(CNC(=O)c2c(C)n(S(=O)(=O)N3CCCCC3)c3ncccc23)c(=O)[nH]1", "IC50": "100 to 1000 nM"}

Consider the record given below.
Form field: reported IC50 of Cc1cc(C)c(CNC(=O)c2cnn(C(C)c3ccccc3)c2C)c(O)n1 (single isomer, unassigned) [Compound 107]
> 10000 nM

====

// reported pIC50 for each item listed
molecular target: Y641N EZH2 (Homo sapiens, UniProt Q15910, Y641N); test: Y641N EZH2 assay: as EZH2 assay, with reconstituted H3K27Me2 oligonucleosomes as substrate; type: biochemical; settings: Y641N mutant EZH2, H3K27Me2 oligonucleosome substrate; read-out: Y641N EZH2 IC50
Sequence (Q15910 whole entry Y641N): as the sequence (Q15910 whole entry) above, with Y641N counted along it
Sequence (O75530 whole entry partner): as the sequence (O75530 whole entry partner) above
Sequence (Q15022 whole entry partner): as the sequence (Q15022 whole entry partner) above
pIC50: −log10 of the molar value.

Worked cases, pIC50 given:
{"compound": "Cc1cc(C)c(CNC(=O)c2c(C)n(-c3cccc(C)c3C)c3ccccc23)c(=O)[nH]1", "assay_value": "6.00 to 7.00"}
{"compound": "COc1cc(C)[nH]c(=O)c1CNC(=O)c1c(C)n(-c2cccc3c2CCCN3S(C)(=O)=O)c2ccccc12", "assay_value": "> 7.00"}
{"compound": "Cc1cc(C)c(CNC(=O)c2c(C)n(-c3ccccc3)c3ccccc23)c(O)n1", "assay_value": "6.00 to 7.00"}
{"compound": "CC[C@@H](C)n1c(C)c(C(=O)NCc2c(C)cc(C)[nH]c2=O)c2cnc(C(=O)NC)nc21", "assay_value": "5.00 to 6.00"}
{"compound": "Cc1cc(C)c(CNC(=O)c2cn(S(=O)(=O)c3ccccc3)c3ccccc23)c(=O)[nH]1", "assay_value": "< 5.00"}

Form field: reported pIC50 of Cc1cc(C)c(CNC(=O)c2c(C)n(C(C)Cn3ccccc3=O)c3ncccc23)c(=O)[nH]1 (racemic)
5.00 to 6.00

Form field: reported pIC50 of COc1cc(C)[nH]c(=O)c1CNC(=O)c1c(C)n(C(C)C2CCN(C(=O)OC(C)(C)C)CC2)c2ncncc12 (stereo not drawn)
> 7.00

Form field: reported pIC50 of Cc1cc(C)c(CNC(=O)c2c(C)n(C(C)Cn3cccn3)c3ncccc23)c(=O)[nH]1 (racemic)
5.00 to 6.00

Form field: reported pIC50 of `Cc1ccc(C)c(-n2c(C)c(C(=O)NCc3c(C)cc(C)[nH]c3=O)c3ccccc32)c1`
> 7.00

Form field: reported pIC50 of COc1cc(C)[nH]c(=O)c1CNC(=O)c1c(C)n(C(C)CC(N)=O)c2ncccc12 (stereo not drawn)
5.00 to 6.00

Form field: reported pIC50 of `Cc1cc(C)c(CNC(=O)c2c(C)n([C@H](C)c3ccccc3)c3nc(N4CCNCC4)ncc23)c(O)n1`
6.00 to 7.00

Form field: reported pIC50 of COc1cc(C)[nH]c(=O)c1CNC(=O)c1c(C)n(C(C)C(OC)c2ccccc2)c2ncccc12 (stereo not drawn)
6.00 to 7.00

Form field: reported pIC50 of COc1cc(C)[nH]c(=O)c1CNC(=O)c1c(C)n(C(C)COc2ccccn2)c2ncccc12 (racemic)
6.00 to 7.00

Form field: reported pIC50 of `Cc1cc(C)c(CNC(=O)c2cn(-c3ccccc3C)c3ccccc23)c(O)n1`
5.00 to 6.00

Form field: reported pIC50 of `COc1cc(C)[nH]c(=O)c1CNC(=O)c1c(C)n(C(=O)CC(C)C)c2ccccc12`
6.00 to 7.00

Form field: reported pIC50 of `CC[C@@H](C)n1c(C)c(C(=O)NCc2c(C)cc(C)[nH]c2=O)c2cnc(CO)nc21`
5.00 to 6.00

Form field: reported pIC50 of `Cc1cc(C)c(CNC(=O)c2c(C)n([C@H](C)c3ccccc3)c3nc(C4CCOCC4)ncc23)c(O)n1`
5.00 to 6.00

Form field: reported pIC50 of `Cc1cc(C)c(CNC(=O)c2c(C)n(C(=O)c3ccccc3)c3ccccc23)c(O)n1`
6.00 to 7.00

Form field: reported pIC50 of `Cc1cc(C)c(CNC(=O)c2c(C)n(S(=O)(=O)c3ccccc3)c3ccccc23)c(O)n1`
6.00 to 7.00
